Below is a list of entries, each paired with its recorded TGI value.
test system: MDA-MB-435; assay: NCI tumour cell line growth inhibition, 48 h
Return type: number; implicit unit µM.

N#CC(c1cc(Cl)ncn1)c1nc2ccccc2s1 (stereo not given)	62

Note: attention shifts to another entry.
OCSc1nn(CO)c(=S)s1 has a reported TGI of 34.3

====

test system: UACC-257 melanoma; assay: NCI tumour cell line growth inhibition, 48 h
observation_type: TGI

CCN(CC)C1=Nc2ccccc2-n2c(C)cnc2C1	> 100 µM
CC1=C(C)C(=O)OC([C@](C)(O)[C@]2(O)CC[C@@]3(O)[C@@H]4C[C@H]5O[C@]56CC=CC(=O)[C@]6(C)[C@H]4CC[C@]23COC(=O)c2ccc(C)o2)C1 (stereo partly specified)	> 20.9 µM
O=C(/C=C/c1cccnc1)c1ccccc1O	60.3 µM
O=C(c1ccc2c3c(ccc(C(=O)C(F)(F)F)c13)CC2)C(F)(F)F	> 100 µM
C/C(=N/N)c1ccc2[nH]c3c(C)cc([N+](=O)[O-])c(C)c3c2c1	48.6 µM

// assay UACC-257 melanoma, entry COC(=O)C(Cc1nc2ccccc2[nH]c1=O)C(=O)C(=O)Nc1ccc(OC)cc1[N+](=O)[O-] (stereo unspecified) , TGI value = > 100 µM

====

Below is a list of entries, each paired with its recorded TGI value.
system: PC-3 prostate; assay: NCI tumour cell line growth inhibition, 48 h

# annotated cases, reported TGI shown
Cc1ccc(S(=O)(=O)n2cc(-c3nnnn3-c3ccc(Cl)cc3)c(=O)c3ccccc32)cc1	> 100 µM
CCOP(=O)(OCC)/C(C#N)=C/c1c(C)[nH]c2ccccc12	> 100 µM
C[C@@]1(N2C(=O)OC[C@@H]2c2ccccc2)C(=O)N([C@H](CC(=O)N2CCC(N3CCCCC3)CC2)C(=O)NCc2cccc(C(F)(F)F)c2)[C@@H]1/C=C/c1ccccc1	15.7 µM
O=C1NN(c2ccccc2)C(=O)C2C3c4ccccc4C(c4ccccc43)C12 (centres undefined)	> 100 µM
Cc1cc(C#N)c(Nc2c(C)cccc2[N+](=O)[O-])s1	54.4 µM
C=C1C(=O)OC2/C=C(\C)C3OC3/C=C(/C(=O)OC)C(OC(C)=O)C(OC(=O)C(C)(O)C(C)OC(C)=O)C12 (centres undefined)	14.8 µM
Cc1cc(-c2nc3cc(F)c(F)cc3s2)ccc1N	> 100 µM
COc1c(O)cc(C(=O)O[C@@H]2Cc3c(O)cc(O)cc3O[C@@H]2c2cc(O)c(O)c(O)c2)cc1O	> 100 µM
O=C1OC(c2ccccc2)N/C1=C\c1ccc2c(c1)OCO2 (centres undefined)	> 100 µM
c1ccc2c(c1)C(=Nc1ccc(N=C3c4ccccc4-c4ccccc43)cc1)c1ccccc1-2	> 100 µM

Note: attention shifts to another entry.
COC(=O)c1scc(N)c1-n1ccc(=O)[nH]c1=O has a reported TGI of > 100 µM

====

Below is a list of entries, each paired with its recorded TGI value.
tested on: SF-539 CNS; assay: NCI tumour cell line growth inhibition, 48 h

Cc1ccc(C2=C(c3ccccc3)C(O)(c3ccc(C)cc3)C(c3ccccc3)=C2c2ccc(C)cc2)cc1 has a reported TGI of > 100 µM

CCCCCC(/C=N/N)C(O)(C(F)(F)F)C(F)(F)F (stereo not drawn) has a reported TGI of > 10 µM

COc1ccc(C#CCC(OC2OC(CO)C(O)C(O)C2O)C(O)c2ccc(OC)c(OC)c2)cc1OC (stereo not drawn) has a reported TGI of > 100 µM

O=C(O)c1cc(Sc2ccc([N+](=O)[O-])c(C(=O)O)c2)ccc1[N+](=O)[O-] has a reported TGI of > 100 µM

CC(NC(=O)C(N)CC(=O)O)NC(=O)N1CCCC1 (stereo not drawn) has a reported TGI of > 100 µM

Nc1nc2c(c3cnccc13)C(c1cccc(Cl)c1)Cc1cnccc1-2 (stereo not drawn) has a reported TGI of 0.752 µM

COc1ccc([C@@H]2CC(=O)NCCCCNCCCN2)cc1 has a reported TGI of > 100 µM

====

Below is a list of entries, each paired with its recorded TGI value.
test system: KM12 colon; assay: NCI tumour cell line growth inhibition, 48 h

# annotated cases, reported TGI shown
O=C(O)/C=C\C(=O)Nc1ccc2c(c1)C(=O)c1cc(F)ccc1-2	> 100 µM
Cc1ccc(S(=O)(=O)n2cc(-c3nnnn3-c3ccc(Cl)cc3)c(=O)c3ccccc32)cc1	> 100 µM
O=C1NN(c2ccccc2)C(=O)C2C3c4ccccc4C(c4ccccc43)C12 (centres undefined)	> 100 µM

C=C(C(=O)O)[C@@H]1C[C@@H]2O[C@H]1CC(C)=CCC/C(C)=C/CC[C@@]2(C)O has a reported TGI of > 100 µM

====

Below is a list of entries, each paired with its recorded TGI value.
system: HCC-2998 colon; experiment: NCI tumour cell line growth inhibition, 48 h

# annotated cases, reported TGI shown
CCc1ccc(Nc2cc(C)nc3nc(C)nn23)cc1	> 100 µM
NC(CCCCNC(=O)C(Cc1ccccc1)NC(=O)OCc1ccccc1)C(=O)NC(CCCCNC(=O)C(Cc1ccccc1)NC(=O)OCc1ccccc1)C(=O)NC(CCCCNC(=O)C(Cc1ccccc1)NC(=O)OCc1ccccc1)C(=O)NC(CCCCNC(=O)C(Cc1ccccc1)NC(=O)OCc1ccccc1)C(=O)NC(CCCCNC(=O)C(Cc1ccccc1)NC(=O)OCc1ccccc1)C(=O)NC(CCCCNC(=O)C(Cc1ccccc1)NC(=O)OCc1ccccc1)C(=O)O (centres undefined)	> 100 µM
Cc1nc(C)c(N2CCN(C#N)CC2)c(=O)[nH]1	> 100 µM

// assay HCC-2998 colon, entry COC(=O)C1CCC(=O)N1C(c1ccc2c(c1)OCO2)c1ccc2c(c1)OCO2 (centres undefined) , TGI value = > 100 µM

====

system: SNB-75 CNS; assay: NCI tumour cell line growth inhibition, 48 h
Below is a list of entries, each paired with its recorded TGI value.

COC(=O)C1C2CCCN2OC1(C)CO (stereo not drawn)	> 100 µM

// assay SNB-75 CNS, entry CC1=C2C(O)C(C(C)C(=O)NC(C)C)CCC2(C)C=CC1=O (stereo not drawn) , TGI value = > 100 µM

// assay SNB-75 CNS, entry CCc1ccc(Nc2cc(C)nc3nc(C)nn23)cc1 , TGI value = > 100 µM

====

tested on: UO-31 renal; experiment: NCI tumour cell line growth inhibition, 48 h
observation_type: TGI (µM)
Return type: number; implicit unit µM.

# annotated cases, reported TGI shown
CCC(/C(=N\Nc1c(Cl)cc(Cl)cc1Cl)c1ccccc1)n1ccnc1C (centres undefined)	20.1
Cc1ccccc1/C=C1\CN(C(=O)OC(C)(C)C)C/C(=C\c2ccccc2C)C1=O	3.09
CC(=O)Nc1sc2c(c1-c1nc3ccccc3s1)CNC2	11.4
COc1cc2c(cc1O)C(C)Cc1cc3c(cc1N(C)CC2)OCO3 (centres undefined)	37.8

Note: attention shifts to another entry.
CCN(CC)CCOc1ccc(C(=C2CCCCC2)c2ccc(OCCN(CC)CC)cc2)cc1 has a reported TGI of 2.96

====

Below is a list of entries, each paired with its recorded TGI value.
test system: TK-10 renal; assay: NCI tumour cell line growth inhibition, 48 h

# annotated cases, reported TGI shown
O=C1C(Cl)=C(Nc2cccc(O)c2)C(=O)N1c1cccc(Cl)c1Cl	80 µM
COc1ccc(/C=C/C(=O)c2ccc(Nc3ccnc4cc(Cl)ccc34)cc2)cc1	> 100 µM
S=C1SC(c2ccc(Cl)cc2)(c2ccc(Cl)cc2)c2ccccc21	> 100 µM
Cc1ccc(C2=C(c3ccccc3)C(O)(c3ccc(C)cc3)C(c3ccccc3)=C2c2ccc(C)cc2)cc1	> 100 µM
CC(=O)c1ccc(NCN2C(=O)c3ccccc3C2=O)cc1	> 100 µM

Note: attention shifts to another entry.
CC/C=C\C/C=C\C[C@H]1C/C=C2/C(=O)C=C[C@H]2C/C=C\CCC(=O)O1 has a reported TGI of 12.9 µM

====

system: SW-620 colon; experiment: NCI tumour cell line growth inhibition, 48 h
observation_type: TGI

CC1=NN(C(=O)Cc2ccccc2)C(=O)/C1=C\c1ccco1	> 100 µM
CC(Oc1ccc2cc(C(=O)c3ccccc3)c(=O)oc2c1)C(=O)O (stereo unspecified)	> 100 µM
CC1Cc2cc(O)ccc2C2[C@@H]1C1CC[C@H](O)[C@@]1(C)C[C@@H]2O[N+](=O)[O-] (stereo partly specified)	> 100 µM
O=C1C(Cl)=C(Nc2cccc(O)c2)C(=O)N1c1cccc(Cl)c1Cl	34.5 µM

BrC12c3ccccc3Sc3ccccc3C1(Br)c1ccccc12 (stereo unspecified) has a reported TGI of > 100 µM

C/C(=N/N)c1ccc2[nH]c3c(C)cc([N+](=O)[O-])c(C)c3c2c1 has a reported TGI of 24.7 µM

====

test system: SF-268 CNS; assay: NCI tumour cell line growth inhibition, 48 h
observation_type: TGI

CC[C@]12CCCN3CC[C@]4(C(=C(C(=O)OC)C1)Nc1ccccc14)[C@@H]32 has a reported TGI of 37.8 µM

CC(=O)Nc1ccc(-c2nc3ccccc3s2)cc1O has a reported TGI of > 100 µM

Origin of the recorded values: PubChem BioAssay (NCI)
